target: P2X7 (Homo sapiens, UniProt Q99572)
Sequence (Q99572 1-595): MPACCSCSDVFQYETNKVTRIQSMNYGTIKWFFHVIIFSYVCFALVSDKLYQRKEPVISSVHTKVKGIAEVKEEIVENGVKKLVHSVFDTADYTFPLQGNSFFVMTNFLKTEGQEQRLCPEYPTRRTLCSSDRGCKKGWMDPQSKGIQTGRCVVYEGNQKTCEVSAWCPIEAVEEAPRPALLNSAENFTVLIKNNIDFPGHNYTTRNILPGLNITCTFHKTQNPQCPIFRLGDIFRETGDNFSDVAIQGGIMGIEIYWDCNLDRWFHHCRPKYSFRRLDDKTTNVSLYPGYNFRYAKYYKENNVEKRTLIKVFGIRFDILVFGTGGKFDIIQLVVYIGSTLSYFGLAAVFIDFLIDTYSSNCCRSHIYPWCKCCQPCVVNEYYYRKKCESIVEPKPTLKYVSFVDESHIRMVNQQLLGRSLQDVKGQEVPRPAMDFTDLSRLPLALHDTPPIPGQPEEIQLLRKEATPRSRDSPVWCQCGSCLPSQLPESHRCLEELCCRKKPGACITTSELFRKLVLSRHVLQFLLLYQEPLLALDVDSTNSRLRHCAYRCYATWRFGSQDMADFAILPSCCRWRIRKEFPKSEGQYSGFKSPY
assay.remarks: Ca2+ flux (FLIPR) in 1321N1 cells expressing recombinant human P2X7 channel
Format: cell-based
Set-up: expressed in transfected cells; host or cells: 1321N1 cells
details: 250 μM BzATP
pIC50: −log10 of the molar value.
measured.property: pIC50

[[record]]
compound = "CC1Cn2c(nnc2C(F)(F)F)C(c2ccccc2)N1C(=O)c1cccc(C(F)(F)F)c1Cl (racemic)"
recorded_result = "< 5.00"

[[record]]
compound = "CC1c2nnc(-c3ccc(C(F)(F)F)cc3)n2CCN1C(=O)c1cccc(C(F)(F)F)c1Cl (stereo not drawn)"
recorded_result = "< 5.00"


Now examine the next entry.
Which pIC50 value is on record for `C[C@H]1Cn2c(nnc2-c2cccc(F)c2)CN1C(=O)c1cccc(Cl)c1Cl` ?
< 5.00

----------
target: rat P2X7 (Rattus norvegicus, UniProt Q64663)
Sequence (Q64663 whole entry): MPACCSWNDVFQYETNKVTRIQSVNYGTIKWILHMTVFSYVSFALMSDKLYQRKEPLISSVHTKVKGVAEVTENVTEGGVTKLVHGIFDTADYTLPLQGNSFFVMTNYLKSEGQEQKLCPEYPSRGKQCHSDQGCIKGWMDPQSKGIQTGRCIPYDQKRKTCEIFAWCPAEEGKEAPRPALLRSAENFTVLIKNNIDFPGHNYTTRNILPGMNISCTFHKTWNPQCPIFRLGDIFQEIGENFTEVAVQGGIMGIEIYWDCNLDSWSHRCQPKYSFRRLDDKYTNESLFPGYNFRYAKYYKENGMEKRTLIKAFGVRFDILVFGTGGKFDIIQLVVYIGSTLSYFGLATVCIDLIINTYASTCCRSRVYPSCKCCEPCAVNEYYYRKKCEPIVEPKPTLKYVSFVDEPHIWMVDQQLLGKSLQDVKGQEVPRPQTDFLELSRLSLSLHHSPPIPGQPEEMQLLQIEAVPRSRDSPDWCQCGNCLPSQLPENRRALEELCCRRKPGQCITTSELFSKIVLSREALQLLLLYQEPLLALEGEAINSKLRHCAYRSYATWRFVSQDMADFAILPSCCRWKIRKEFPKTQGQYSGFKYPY
assay.remarks: Ca2+ flux (FLIPR) in 1321N1 cells expressing recombinant rat P2X7 channel
details: FLIPR (rat) IC50 (μM), 250 μM BzATP
Each entry below carries its recorded IC50.

# count of solved cases: 2
[[record]]
compound = "O=C(c1cccc(Cl)c1Cl)N1CCn2c(nnc2C(F)(F)F)[C@@H]1c1ccccc1"
target = "rat P2X7 (Rattus norvegicus, UniProt Q64663)"
measured_property = "IC50"
recorded_result = "> 10 µM"

[[record]]
compound = "CC1CN(C(=O)c2cccc(Cl)c2Cl)Cc2nnc(-c3ccccn3)n21 (stereo not drawn)"
target = "rat P2X7 (Rattus norvegicus, UniProt Q64663)"
measured_property = "IC50"
recorded_result = "> 10 µM"


Which IC50 value is on record for O=C(c1ccc(F)c(C(F)(F)F)c1Cl)N1CCn2c(nnc2C(F)(F)F)C1c1ccccc1 (single isomer, unassigned) [Example 96] ?
> 10 µM
